- tested_on: Human osteoclastic acid phosphatase (OAP) (Homo sapiens)
- Construct: purified from hairy cell leukemia spleen; from tissue; host or cells: human hairy cell leukemia spleen
- Sequence (P13686 22-325): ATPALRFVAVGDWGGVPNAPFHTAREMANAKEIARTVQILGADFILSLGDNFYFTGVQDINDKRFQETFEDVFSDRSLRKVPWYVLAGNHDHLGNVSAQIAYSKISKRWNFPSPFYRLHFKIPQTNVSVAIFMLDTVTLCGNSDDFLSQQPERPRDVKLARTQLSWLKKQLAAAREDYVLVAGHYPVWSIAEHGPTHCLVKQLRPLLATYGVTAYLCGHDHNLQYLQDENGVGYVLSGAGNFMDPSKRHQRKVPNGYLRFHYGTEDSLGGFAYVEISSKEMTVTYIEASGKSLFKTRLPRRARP
- experiment: Osteoclastic Acid Phosphatase (OAP) inhibition
- Assay type: biochemical
- assay_conditions: 100 uM; pH 5.0, room temperature, 20 minutes; read-out: OAPase % Inh@100 uM
Collected inhibition at 100 µM values appear next to each entry.
# value in %; strip the unit string

[
  {
    "compound": "O=P(O)(O)C(c1ccccc1)c1ccc(F)cc1 (centres unmarked) [Cmpd 21]",
    "inhibition at 100 µM (%)": 10
  },
  {
    "compound": "O=P(O)(O)C(c1ccccc1)c1ccccc1C(F)(F)F (centres unmarked) [Cmpd 14]",
    "inhibition at 100 µM (%)": 9
  }
]

Can you share its inhibition at 100 µM? I mean this compound: O=P(O)(O)C(c1cccc(C(F)(F)F)c1)c1cccc(C(F)(F)F)c1 [Cmpd 20]
28

Can you share its inhibition at 100 µM? I mean this compound: COc1ccc(C(c2ccccc2)P(=O)(O)O)cc1 (centres unmarked) [Cmpd 24]
28

Can you share its inhibition at 100 µM? I mean this compound: Cc1cccc(C(C2CCCCC2)P(=O)(O)O)c1 (centres unmarked) [Cmpd 7]
16

====

- tested_on: Human osteoclastic acid phosphatase (OAP) (Homo sapiens)
- Construct: purified from hairy cell leukemia spleen; from tissue; host or cells: human hairy cell leukemia spleen
- experiment: Osteoclastic Acid Phosphatase (OAP) inhibition
- Type: biochemical
- assay_conditions: pH 5.0, room temperature, 20 minutes; read-out: OAPase IC50
parameter: IC50

Below: 2 compounds and their reported IC50.
[
  {
    "compound": "Cc1ccc2c(C(CC3CCCCC3)P(=O)(O)O)cccc2c1 (stereo not drawn) [Cmpd 43]",
    "result": "11.4 µM"
  },
  {
    "compound": "O=P(O)(O)C(c1ccccc1)C1CCCCC1 (stereo not drawn) [Cmpd 4]",
    "result": "1.4 µM"
  }
]

Can you share its IC50? I mean this compound: O=P(O)(O)C(Cc1ccc(-c2ccccc2)cc1)c1cccc(C(F)(F)F)c1 (stereo not drawn) [Cmpd 38]
22 µM
